- ASSAY TARGET: human serotonin transporters (Homo sapiens, UniProt P31645)
- Construct: expressed in transfected cells
- Sequence (P31645 whole entry): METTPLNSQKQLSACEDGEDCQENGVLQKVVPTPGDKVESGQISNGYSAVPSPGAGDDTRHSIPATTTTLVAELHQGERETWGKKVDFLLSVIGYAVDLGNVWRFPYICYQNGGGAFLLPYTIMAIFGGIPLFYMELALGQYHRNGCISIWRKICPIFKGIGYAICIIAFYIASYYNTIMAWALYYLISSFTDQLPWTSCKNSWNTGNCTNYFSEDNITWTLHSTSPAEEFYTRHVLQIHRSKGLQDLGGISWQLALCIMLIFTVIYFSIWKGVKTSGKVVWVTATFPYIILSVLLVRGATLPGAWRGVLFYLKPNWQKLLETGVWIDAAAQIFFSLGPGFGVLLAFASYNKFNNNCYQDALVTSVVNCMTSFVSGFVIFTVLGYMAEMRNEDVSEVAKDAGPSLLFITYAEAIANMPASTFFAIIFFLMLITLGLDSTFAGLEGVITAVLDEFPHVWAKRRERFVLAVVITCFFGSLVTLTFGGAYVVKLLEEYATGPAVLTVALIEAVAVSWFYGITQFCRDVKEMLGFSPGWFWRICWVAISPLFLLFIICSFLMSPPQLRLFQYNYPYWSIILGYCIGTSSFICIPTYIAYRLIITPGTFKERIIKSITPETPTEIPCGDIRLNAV
- ASSAY DETAILS: Serotonin Transporter Binding Assay ([3H]-citalopram displacement, HEK-hSERT cell membranes)
- RECORDED CONDITIONS: HEK-hSERT membranes, 1 nM [3H]-citalopram, 1 hr at 25° C.; read-out: SERT (binding Ki)
pKi: −log10 of the molar value.
EXPERIMENTAL ENDPOINT: pKi

compound="N#Cc1ccc2[nH]cc(C3CCC(N4Cc5ccccc5C4)C3)c2c1 (centres unmarked)" experimental_endpoint=pKi measurement="8.00 to 9.00"
compound="CCN(C)C1CCC(c2c[nH]c3ccc(C#N)cc23)C1 (centres unmarked)" experimental_endpoint=pKi measurement="8.00 to 9.00"
compound=CCn1cc([C@@H]2CC[C@H](N(C)C)C2)c2cc(C#N)ccc21 experimental_endpoint=pKi measurement="> 9.00"
compound=CN(C)[C@H]1CC[C@H](c2c[nH]c3ccc(F)cc23)C1 experimental_endpoint=pKi measurement="8.00 to 9.00"
compound="CCCN(CCC)C1CCC(c2cn(C)c3ccc(C#N)cc23)C1 (centres unmarked)" experimental_endpoint=pKi measurement="> 9.00"
